# study-target: Bifunctional 3'-5' exonuclease/ATP-dependent helicase WRN [480-1251] (UniProt Q14191)
# Construct: 480-1251
# Sequence (Q14191 480-1251): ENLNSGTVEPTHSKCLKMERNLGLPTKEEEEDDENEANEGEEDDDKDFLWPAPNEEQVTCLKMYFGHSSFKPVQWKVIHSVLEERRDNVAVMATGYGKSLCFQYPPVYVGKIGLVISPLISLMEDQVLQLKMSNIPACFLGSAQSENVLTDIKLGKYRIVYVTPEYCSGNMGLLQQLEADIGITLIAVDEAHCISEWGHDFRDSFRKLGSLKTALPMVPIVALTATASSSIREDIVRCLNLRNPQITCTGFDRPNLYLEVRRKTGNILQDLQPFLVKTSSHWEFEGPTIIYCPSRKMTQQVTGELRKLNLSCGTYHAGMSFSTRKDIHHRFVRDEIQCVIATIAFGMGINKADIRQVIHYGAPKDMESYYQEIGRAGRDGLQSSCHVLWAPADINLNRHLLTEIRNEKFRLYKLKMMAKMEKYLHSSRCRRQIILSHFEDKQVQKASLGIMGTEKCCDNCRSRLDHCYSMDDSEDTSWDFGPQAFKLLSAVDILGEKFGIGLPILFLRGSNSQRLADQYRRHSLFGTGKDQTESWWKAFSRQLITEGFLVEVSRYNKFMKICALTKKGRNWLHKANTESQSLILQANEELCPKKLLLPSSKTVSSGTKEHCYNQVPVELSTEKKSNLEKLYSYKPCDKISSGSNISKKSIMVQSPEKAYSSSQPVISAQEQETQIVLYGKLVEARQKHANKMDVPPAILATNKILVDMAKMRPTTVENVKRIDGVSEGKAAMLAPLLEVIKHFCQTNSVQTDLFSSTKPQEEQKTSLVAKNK
# experiment-notes: Biochemical Activity Assays
pIC50: −log10 of the molar value.
Here, each record is paired with measured pIC50 data.
measurement-kind: pIC50

INSERT INTO assay_data (structure_notation, study_target, quantitative_result) VALUES
  ('Cc1ncnc(C(=O)N2CCN(c3c4n(c5nc(-c6ccc7c(c6)COC7(C)C)nn5c3=O)[C@@H](C(=O)Nc3ccc(C(F)(F)F)cc3Cl)C[C@@H]4C)CC2)c1O', 'Bifunctional 3''-5'' exonuclease/ATP-dependent helicase WRN [480-1251] (UniProt Q14191)', 5.31),
  ('CCc1c(N2CCN(C(=O)c3ncnc(C)c3O)CC2)c(=O)n2nc(-c3ccccc3C(=O)NC3CC3)nc2n1CC(=O)Nc1ccc(C(F)(F)F)cc1Cl', 'Bifunctional 3''-5'' exonuclease/ATP-dependent helicase WRN [480-1251] (UniProt Q14191)', 7.20),
  ('CCc1c(N2CCN(C(=O)c3ncnc(C)c3O)CC2)c(=O)n2nc(-c3ccc4c(c3)CC[C@H]4OC)nc2n1CC(=O)Nc1ccc(C(F)(F)F)cc1Cl', 'Bifunctional 3''-5'' exonuclease/ATP-dependent helicase WRN [480-1251] (UniProt Q14191)', 7.47),
  ('CCc1c(N2CCN(C(=O)c3cccc4c3ncn4C)CC2)c(=O)n2nc(C3=CCOCC3)nc2n1CC(=O)Nc1ccc(C(F)(F)F)cc1Cl', 'Bifunctional 3''-5'' exonuclease/ATP-dependent helicase WRN [480-1251] (UniProt Q14191)', 7.29),
  ('CCc1c(N2CCN(C(=O)c3c(C#N)cnc(C)c3O)CC2)c(=O)n2nc(-c3ccc4c(c3)COC4)nc2n1CC(=O)Nc1ccc(C(F)(F)F)cc1Cl', 'Bifunctional 3''-5'' exonuclease/ATP-dependent helicase WRN [480-1251] (UniProt Q14191)', 7.35),
  ('CCc1c(N2CCN(C(=O)c3ncnc(C)c3O)CC2)c(=O)n2nc(-c3ccc4c(c3)COC4)nc2n1CC(=O)Nc1c(Cl)cc(C(F)(F)F)c2c1OCC2', 'Bifunctional 3''-5'' exonuclease/ATP-dependent helicase WRN [480-1251] (UniProt Q14191)', 7.17),
  ('CCc1c(N2CCN(C(=O)c3ncnc(C)c3O)CC2)c(=O)n2nc(-c3ccc4c(c3)OCCN4)nc2n1CC(=O)Nc1ccc(C(F)(F)F)cc1Cl', 'Bifunctional 3''-5'' exonuclease/ATP-dependent helicase WRN [480-1251] (UniProt Q14191)', 7.51),
  ('CCc1c(N2CCN(C(=O)c3nc4c(cc3O)CCC4)CC2)c(=O)n2nc(-c3ccc4c(c3)COC4)nc2n1CC(=O)Nc1ccc(C(F)(F)F)cc1Cl', 'Bifunctional 3''-5'' exonuclease/ATP-dependent helicase WRN [480-1251] (UniProt Q14191)', 7.08),
  ('Cc1ncnc(C(=O)N2CCN(c3c4n(c5nc(-c6ccc7c(c6)COC7(C)C)nn5c3=O)[C@H](C(=O)Nc3ccc(C(F)(F)F)cc3Cl)C[C@@H]4C)CC2)c1O', 'Bifunctional 3''-5'' exonuclease/ATP-dependent helicase WRN [480-1251] (UniProt Q14191)', 5.74),
  ('CCc1c(N2CCN(C(=O)c3ncnc(C)c3O)CC2)c(=O)n2nc(-c3ccc4cn(C)nc4c3)nc2n1CC(=O)Nc1ccc(C(F)(F)F)cc1Cl', 'Bifunctional 3''-5'' exonuclease/ATP-dependent helicase WRN [480-1251] (UniProt Q14191)', 7.52);

----------
# study-target: Bifunctional 3'-5' exonuclease/ATP-dependent helicase WRN (Homo sapiens, UniProt Q14191)
# Sequence (Q14191 whole entry): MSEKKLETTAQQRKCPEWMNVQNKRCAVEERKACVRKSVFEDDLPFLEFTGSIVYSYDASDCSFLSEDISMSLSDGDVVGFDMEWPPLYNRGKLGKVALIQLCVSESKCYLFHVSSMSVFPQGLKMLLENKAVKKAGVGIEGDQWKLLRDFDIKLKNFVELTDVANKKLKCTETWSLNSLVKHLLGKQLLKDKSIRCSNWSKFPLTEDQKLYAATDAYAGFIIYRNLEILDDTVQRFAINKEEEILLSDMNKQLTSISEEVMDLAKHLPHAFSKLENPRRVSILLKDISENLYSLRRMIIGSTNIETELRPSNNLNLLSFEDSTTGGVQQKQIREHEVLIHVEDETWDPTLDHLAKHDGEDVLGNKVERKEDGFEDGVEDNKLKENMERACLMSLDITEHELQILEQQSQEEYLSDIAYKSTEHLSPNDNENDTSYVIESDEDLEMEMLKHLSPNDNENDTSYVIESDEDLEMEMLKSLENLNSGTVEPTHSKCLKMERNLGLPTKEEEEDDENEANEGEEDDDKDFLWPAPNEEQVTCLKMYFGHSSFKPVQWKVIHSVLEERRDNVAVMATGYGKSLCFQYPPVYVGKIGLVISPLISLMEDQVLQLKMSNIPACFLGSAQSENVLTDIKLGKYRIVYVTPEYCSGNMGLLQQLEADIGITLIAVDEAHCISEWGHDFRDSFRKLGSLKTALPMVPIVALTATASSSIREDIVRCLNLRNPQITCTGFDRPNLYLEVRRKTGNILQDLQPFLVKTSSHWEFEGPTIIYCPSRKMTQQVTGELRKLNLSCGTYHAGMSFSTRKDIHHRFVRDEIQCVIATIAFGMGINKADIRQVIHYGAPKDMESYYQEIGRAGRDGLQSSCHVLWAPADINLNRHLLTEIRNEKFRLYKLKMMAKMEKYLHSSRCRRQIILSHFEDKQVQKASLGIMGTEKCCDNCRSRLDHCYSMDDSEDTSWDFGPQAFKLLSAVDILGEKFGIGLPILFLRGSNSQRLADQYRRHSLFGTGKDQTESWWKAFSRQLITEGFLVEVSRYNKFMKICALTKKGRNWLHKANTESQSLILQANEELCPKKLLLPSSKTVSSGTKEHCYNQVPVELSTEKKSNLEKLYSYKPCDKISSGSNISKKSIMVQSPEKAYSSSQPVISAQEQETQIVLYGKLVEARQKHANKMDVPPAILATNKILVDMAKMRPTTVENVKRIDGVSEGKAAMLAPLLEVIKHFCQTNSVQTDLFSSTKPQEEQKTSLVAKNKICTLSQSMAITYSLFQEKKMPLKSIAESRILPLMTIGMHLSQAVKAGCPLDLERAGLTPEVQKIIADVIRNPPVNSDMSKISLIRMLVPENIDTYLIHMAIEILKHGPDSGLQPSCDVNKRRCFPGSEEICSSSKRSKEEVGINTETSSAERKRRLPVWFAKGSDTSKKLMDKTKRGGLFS
# experiment-notes: ADP-Glo Kinase Assay
# Procedure: ATPase activity was measured using the ADP-Glo Kinase Assay following the manufacturers recommended protocol.
pIC50: −log10 of the molar value.
Here, each record is paired with measured pIC50 data.
measurement-kind: pIC50

INSERT INTO results (compound, study_target, measurement_kind, quantitative_result) VALUES
  ('CCc1c(N2CCN(C(=O)c3ncnc(C)c3O)CC2)c(=O)n2nc(-c3cc4n(n3)CCCC4)nc2n1CC(=O)Nc1ccc(C(F)(F)F)cc1Cl [WO2025049746, Example 184]', 'Bifunctional 3''-5'' exonuclease/ATP-dependent helicase WRN (Homo sapiens, UniProt Q14191)', 'pIC50', 7.17),
  ('CCc1c(N2CCN(C(=O)c3ncnc(C)c3O)CC2)c(=O)n2nc(-c3ccc4oc(C)nc4c3)nc2n1CC(=O)Nc1ccc(C(F)(F)F)cc1Cl [WO2025049746, Example 21]', 'Bifunctional 3''-5'' exonuclease/ATP-dependent helicase WRN (Homo sapiens, UniProt Q14191)', 'pIC50', 7.35),
  ('CCc1c(N2CCN(C(=O)c3cccc4c3ncn4C)CC2)c(=O)n2nc(C3=CCOCC3)nc2n1CC(=O)Nc1ccc(C(F)(F)F)cc1Cl [WO2025049746, Example 44]', 'Bifunctional 3''-5'' exonuclease/ATP-dependent helicase WRN (Homo sapiens, UniProt Q14191)', 'pIC50', 7.08),
  ('CCc1c(N2CCN(C(=O)c3ncnc(N4CC(OC)C4)c3O)CC2)c(=O)n2nc(-c3ccc4c(c3)COC4)nc2n1CC(=O)Nc1ccc(C(F)(F)F)cc1Cl [WO2025049746, Example 415]', 'Bifunctional 3''-5'' exonuclease/ATP-dependent helicase WRN (Homo sapiens, UniProt Q14191)', 'pIC50', 8.52),
  ('CCc1c(N2CCN(C(=O)c3ncnc(C)c3O)CC2)c(=O)n2nc(C3=CCOCC3)nc2n1CC(=O)Nc1c(Cl)cc(C(F)(F)F)c2scnc12 [WO2025049746, Example 373]', 'Bifunctional 3''-5'' exonuclease/ATP-dependent helicase WRN (Homo sapiens, UniProt Q14191)', 'pIC50', 7.19);

----------
# study-target: Bifunctional 3'-5' exonuclease/ATP-dependent helicase WRN (Homo sapiens)
# experiment-notes: ADP-Glo Kinase Assay
pIC50: −log10 of the molar value.
measurement-kind: pIC50

INSERT INTO results (compound, quantitative_result) VALUES
  ('CCc1c(N2CCN(C(=O)c3ncnc(C)c3O)CC2)c(=O)n2nc(-c3ccc4nn(CC)cc4c3)nc2n1CC(=O)Nc1ccc(C(F)(F)F)cc1Cl', 7.60),
  ('CCc1c(N2CCN(C(=O)c3cc(C)c(O)cc3O)CC2)c(=O)n2nc(-c3ccc4c(c3)COC4)nc2n1CC(=O)Nc1ccc(C(F)(F)F)cc1Cl', 6.41),
  ('CCc1c(N2CCN(C(=O)c3ncnc(C)c3O)CC2)c(=O)n2nc(C3=CCOCC3)nc2n1CC(=O)Nc1ccc(C(F)(F)F)c2cccnc12 [WO2025049746, Example 360]', 5.67),
  ('CCc1c(N2CCN(C(=O)c3ncnc(N4CC(F)(F)C4)c3O)CC2)c(=O)n2nc(-c3ccc4c(c3)COC4)nc2n1CC(=O)Nc1ccc(C(F)(F)F)cc1Cl', 7.43),
  ('CCc1c(N2CCN(C(=O)c3ncnc(C)c3O)CC2)c(=O)n2nc(-c3ccc4ncncc4c3)nc2n1CC(=O)Nc1ccc(C(F)(F)F)cc1Cl', 7.62);

----------
# study-target: Bifunctional 3'-5' exonuclease/ATP-dependent helicase WRN [480-1251] (UniProt Q14191)
# Construct: 480-1251
# experiment-notes: Biochemical Activity Assays
pIC50: −log10 of the molar value.
Returns t if the recorded pIC50 is greater than or equal to 7, and f otherwise.

INSERT INTO measurements (compound, group_label) VALUES
  ('CCc1c(N2CCN(C(=O)c3ncnc(C)c3O)CC2)c(=O)n2nc(C3=CCOCC3)nc2n1CC(=O)Nc1ccc(OC(F)(F)Cl)cc1Cl', 't'),
  ('CCc1c(N2CCN(C(=O)c3ncnc(C)c3O)CC2)c(=O)n2nc(-c3ccn4c(cc(=O)n4C(F)F)c3F)nc2n1CC(=O)Nc1ccc(C(F)(F)F)cc1Cl', 't'),
  ('CCc1c(N2CCN(C(=O)c3ncnc(C)c3O)CC2)c(=O)n2nc(-c3cc(C)n4nccc4c3)nc2n1CC(=O)Nc1ccc(C(F)(F)F)cc1Cl', 't'),
  ('CCc1c(N2CCN(C(=O)c3ncnc(C)c3O)CC2)c(=O)n2nc(C3=CCOCC3)nc2n1CC(=O)NC1CC2(CC(F)C2)C1 (stereo unspecified)', 'f'),
  ('CCc1c(N2CCN(C(=O)c3ncnc(C)c3O)CC2)c(=O)n2nc(C3C4COCC43)nc2n1CC(=O)Nc1ccc(C(F)(F)F)c2c1CC2 (stereo unspecified)', 'f'),
  ('CCc1c(N2CCN(C(=O)c3ncnc4cc[nH]c34)CC2)c(=O)n2nc(-c3ccc4c(c3)COC4)nc2n1CC(=O)Nc1ccc(C(F)(F)F)cc1Cl', 't'),
  ('CCc1c(N2CCN(C(=O)CO)CC2)c(=O)n2nc(C3=CCOCC3)nc2n1CC(=O)Nc1ccc(C(F)(F)F)cc1Cl', 'f'),
  ('CCc1c(N2CCN(C(=O)c3ncnc(C)c3O)CC2)c(=O)n2nc(-c3ccn4cncc4c3)nc2n1CC(=O)Nc1ccc(C(F)(F)F)cc1Cl', 't'),
  ('CCc1c(N2CCN(C(=O)c3ncnc(C)c3O)CC2)c(=O)n2nc(-c3cc4c(cc3F)OCC4)nc2n1CC(=O)Nc1ccc(C(F)(F)F)cc1Cl', 't'),
  ('CCc1c(N2CCN(C(=O)c3ncnc(C)c3O)CC2)c(=O)n2nc(-c3ccc4c(c3)COC4)nc2n1CC(=O)Nc1c(Cl)cc(C(F)(F)F)cc1OC1CC1', 'f'),
  ('CCc1c(N2CCN(C(=O)c3ncnc(C)c3O)CC2)c(=O)n2nc(-c3cnn4c3CCCC4)nc2n1CC(=O)Nc1ccc(C(F)(F)F)cc1Cl', 't'),
  ('CCc1c(N2CCN(C(=O)C(C)O)CC2)c(=O)n2nc(C3=CCOCC3)nc2n1CC(=O)Nc1ccc(C(F)(F)F)cc1Cl (stereo unspecified)', 't'),
  ('Cc1ncnc(C(=O)N2CCN(c3c4n(c5nc(-c6ccc7c(c6)COC7(C)C)nn5c3=O)[C@@H](C(=O)Nc3ccc(C(F)(F)F)cc3Cl)C[C@@H]4C)[C@H]3CC[C@@H]32)c1O', 'f'),
  ('CCc1c(N2CCN(C(=O)c3nc4n(c(=O)c3O)CCC4)CC2)c(=O)n2nc(-c3ccc4c(c3)COC4)nc2n1CC(=O)Nc1ccc(C(F)(F)F)cc1Cl', 't'),
  ('CCc1c(N2CCN(C(=O)c3ncnc(C)c3O)CC2)c(=O)n2nc(-c3cc4c(cc3C)OCC4)nc2n1CC(=O)Nc1ccc(C(F)(F)F)cc1Cl', 't'),
  ('CCc1c(N2CCN(C(=O)c3ncnc(C)c3O)CC2)c(=O)n2nc(-c3ccc4c(c3)OCO4)nc2n1CC(=O)Nc1ccc(C(F)(F)F)cc1Cl', 't');

Data credit: BindingDB's records for patent WO2025049746
